Here's a roundup of pIC50 values tested on Fibroblast growth factor receptor 3 (Homo sapiens), taken from various published works.
Field pIC50 (float): negative decimal logarithm of the concentration in molar.

>  <TEST SMILES>
COc1cc(Nc2ccc3ncc(-c4ccc(N5CCN(C(=O)C6(F)CN(C(=O)/C=C/CN(C)C)C6)CC5)nc4C)nc3c2)cc(OC)c1

>  <pIC50>
5.74

$$$$

Problem: Can you look up the measured pIC50 of CCN1CCC(n2cc(Nc3ncc(CCc4cc(C(=O)NC)cc(OC)c4F)cn3)cn2)CC1 for me?
Solution: 8.10

Problem: Same again, this time with CNC(=O)c1cc(COc2cnc(Nc3ccc(N4C[C@@H](C)N[C@@H](C)C4)cc3)nc2)c(F)c(OC)c1
Solution: 8.10

Problem: Here is the next compound: CNC(=O)c1cc(CCc2cnc(Nc3cnn(C[C@@H](C)O)c3)nc2)c(F)c(OC)c1
Solution: 7.77

Problem: How about CONC(=O)c1cc(CCc2cnc(Nc3ccc(OCCN4CCCC4)cc3)nc2)cc(OC)c1 ?
Solution: 7.32

Problem: Next compound: COc1cc(C)cc2cc(-c3c(CN4CCC(OC)CC4)cn4ncnc(N)c34)sc12
Solution: 7.90

Problem: Next: CNC(=O)c1cc(CCc2cnc(Nc3nc(C4CC4)cs3)nc2)c(Cl)c(OC)c1
Solution: 6.23

Problem: Do the same for CNC(=O)c1cc(CCc2cnc(Nc3ccc4nnnn4c3)nc2)c(F)c(OC)c1 please
Solution: 6.92

Problem: Okay, and CNC(=O)c1cc(CCc2cnc(Nc3ccc(CN4CCOCC4)cn3)nc2)c(F)c(OC)c1 ?
Solution: 6.70

Problem: Same thing, different compound: CNC(=O)c1cc(CCc2cnc(Nc3cnn(CCN4CCCC4)c3)nc2)c(F)c(OC)c1
Solution: 7.66

Problem: What about this compound? CNC(=O)c1cc(CCc2cnc(Nc3cnn(C[C@@H](C)O)c3)nc2)c(Cl)c(OC)c1
Solution: 8.22

Problem: Next up: CONC(=O)c1cc(CCc2cnc(Nc3ccc(N4C[C@@H](C)N[C@@H](C)C4)cc3)nc2)cc(OC)c1
Solution: 8.05
